Target: T1, mouse ApoE (mouse, UniProt P08226 19-311, limits assumed)
T1 construct: also called msApoE; ms ApoE
T1 sequence (looked up): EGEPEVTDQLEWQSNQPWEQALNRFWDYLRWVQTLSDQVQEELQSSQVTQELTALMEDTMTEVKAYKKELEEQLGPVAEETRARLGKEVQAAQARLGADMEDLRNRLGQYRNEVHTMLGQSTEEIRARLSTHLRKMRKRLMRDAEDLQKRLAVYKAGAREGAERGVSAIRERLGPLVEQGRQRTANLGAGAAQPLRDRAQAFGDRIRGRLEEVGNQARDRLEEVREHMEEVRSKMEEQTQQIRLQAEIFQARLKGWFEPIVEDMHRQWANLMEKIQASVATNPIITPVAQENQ
Assay: pH affinity ELISA, coated mouse ApoE, pH 7.4
Quick reference for EC50 among some binders
Report only the number, with the unit µg/mL understood.

Would you please look over these solved cases?
>>> data_value("BAP191.01-CPE-LC-P095D (antibody, V domains shown) VH: QIQLVQSGPELKKPGETVKISCKASGYTFTTAGMQWVQKMPGKGFKWIGWINTHSGEPKYAEDFKGRFAFSLETSASTAYLQISNLKNEDTATYFCARMGGYAMDYWGQGTSVTVSS VL: DIKLTQSPSSMYASLGERVTITCKASEDINSYLSWFQQKPGKSPKTLIYRANRLVDGVPSRFSGSGSGQDYSLTISSLEYEDMGIYYCLQYDEFDLTFGAGTKLELT")
0.244
>>> data_value("BAP191.01-CPE-HC-M104E (antibody, V domains shown) VH: QIQLVQSGPELKKPGETVKISCKASGYTFTTAGMQWVQKMPGKGFKWIGWINTHSGEPKYAEDFKGRFAFSLETSASTAYLQISNLKNEDTATYFCARMGGYAEDYWGQGTSVTVSS VL: DIKLTQSPSSMYASLGERVTITCKASEDINSYLSWFQQKPGKSPKTLIYRANRLVDGVPSRFSGSGSGQDYSLTISSLEYEDMGIYYCLQYDEFPLTFGAGTKLELT")
2.45

Note: attention shifts to another entry.
Task item: Would you kindly share the measured EC50 for BAP191-01-CPE-HC-M034D (antibody, V domains shown) VH: QIQLVQSGPELKKPGETVKISCKASGYTFTTAGDQWVQKMPGKGFKWIGWINTHSGEPKYAEDFKGRFAFSLETSASTAYLQISNLKNEDTATYFCARMGGYAMDYWGQGTSVTVSS VL: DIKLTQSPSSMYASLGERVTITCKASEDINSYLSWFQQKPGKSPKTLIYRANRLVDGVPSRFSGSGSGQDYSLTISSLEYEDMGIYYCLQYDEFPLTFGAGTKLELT ?
Reply: 0.389
